Target System: acidic fibroblast growth factor (aFGF) (Homo sapiens, UniProt P05230)
Construct: host or cells: E. coli
Sequence (P05230 whole entry, species assumed): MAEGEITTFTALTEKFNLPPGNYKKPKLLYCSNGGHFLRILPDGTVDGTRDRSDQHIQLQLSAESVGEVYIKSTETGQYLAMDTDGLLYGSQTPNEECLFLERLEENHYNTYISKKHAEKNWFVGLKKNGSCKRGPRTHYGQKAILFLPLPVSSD
Experiment Notes: Microplate thermal shift assay for ligands binding to aFGF, turbidity signal
Condition Info: equation (1), estimated ΔHu 60.0 kcal/mole, ΔCpu 0.95 kcal/mole-°K; read-out: Kd at Tm
Ends that are not written are not given here.
Parameter: Kd (µM)

{"Sequence Entry": "EEEEEEEE", "Target System": "acidic fibroblast growth factor (aFGF) (Homo sapiens, UniProt P05230)", "Unit Abbrev": "µM", "Recorded Measurement": 10.1}
